// data source = patent US6914045B2

Test system: Staphylococcus sp.
Assay: in vitro antibacterial evaluation, MIC by broth dilution
Format: cell-based
Settings: broth dilution, 18 hours at 35° C.
PROPERTY NAME: MIC Staphylococcus aureus (GC 4541)

# MIC Staphylococcus aureus (GC 4541) (compound: CCCCCCCC1OCC2OC(OC3C(CO)OC(Oc4ccc(CC5NC(=O)C(C(C)c6ccccc6)NC(=O)CNC(=O)C(CO)NC(=O)C(C(O)C6CNC(=N)N6C6OC(CO)C(O)C(O)C6O)NC(=O)C(C(O)C6CNC(=N)N6)NC5=O)cc4)C(O)C3O)C(O)C(O)C2O1 (stereo not drawn) [Example 109] ) is 1 µg/mL

The compound identified as CC(c1ccccc1)C1NC(=O)CNC(=O)C(CO)NC(=O)C(C(O)C2CNC(=N)N2C2OC(CO)C(O)C(O)C2O)NC(=O)C(C(O)C2CNC(=N)N2)NC(=O)C(Cc2ccc(OC3OC(CO)C(OC4OC5COC(CC67CC8CC(CC(C8)C6)C7)OC5C(O)C4O)C(O)C3O)cc2)NC1=O (stereo not drawn) [Example 129] registered its MIC Staphylococcus aureus (GC 4541) at 2 µg/mL

Entry under test: COc1ccc2cc(COCC3OC(OC4C(CO)OC(Oc5ccc(CC6NC(=O)C(C(C)c7ccccc7)NC(=O)CNC(=O)C(CO)NC(=O)C(C(O)C7CNC(=N)N7C7OC(CO)C(O)C(O)C7O)NC(=O)C(C(O)C7CNC(=N)N7)NC6=O)cc5)C(O)C4O)C(O)C(O)C3O)ccc2c1 (stereo not drawn) [Example 230] . Its MIC Staphylococcus aureus (GC 4541) was 1 µg/mL

Form: compound = CC(C)CC(=O)OC1C(OC2C(CO)OC(Oc3ccc(CC4NC(=O)C(C(C)c5cccs5)NC(=O)CNC(=O)C(CO)NC(=O)C(C(O)C5CNC(=N)N5C5OC(CO)C(O)C(O)C5O)NC(=O)C(C(O)C5CNC(=N)N5)NC4=O)cc3)C(O)C2O)OC(CO)C(O)C1O (stereo not drawn) [Example 265a] ; MIC Staphylococcus aureus (GC 4541) = 16 µg/mL

Lab note: measured MIC Staphylococcus aureus (GC 4541) of CC(c1ccccc1)C1NC(=O)CNC(=O)C(CO)NC(=O)C(C(O)C2CNC(=N)N2C2OC(CO)C(O)C3OC(C)(C)OC32)NC(=O)C(C(O)C2CNC(=N)N2)NC(=O)C(Cc2ccc(OC3OC(CO)C(OC4OC5COC(C)(C)OC5C5OC(C)(C)OC45)C4OC(C)(C)OC34)cc2)NC1=O (stereo not drawn) [Example 229b] was >128 µg/mL

According to the records, this compound CC(c1ccccc1)C1NC(=O)CNC(=O)C(CO)NC(=O)C(C(O)C2CNC(=N)N2C2OC(CO)C(O)C3OC(C)(C)OC32)NC(=O)C(C(O)C2CNC(=N)N2)NC(=O)C(Cc2ccc(OC3OC(CO)C(OC4OC(CO)C(O)C5OC(C)(C)OC45)C4OC(C)(C)OC34)cc2)NC1=O (stereo not drawn) [Example 229a] displays MIC Staphylococcus aureus (GC 4541) of >128 µg/mL

====

Tested on: Staphylococcus sp.
Experiment: in vitro antibacterial evaluation, MIC by broth dilution
Assay type: cell-based
Conditions: broth dilution, 18 hours at 35° C.; strain GC 4548
PROPERTY NAME: MIC Coagulase Negative Staphylococcus (GC 4548) (µg/mL)
Reply with just the number (in µg/mL).

// sample COc1cc(OC)cc(C2OC3C(OC4C(CO)OC(Oc5ccc(CC6NC(=O)C(C(C)c7ccccc7)NC(=O)CNC(=O)C(CO)NC(=O)C(C(O)C7CNC(=N)N7C7OC(CO)C(O)C(O)C7O)NC(=O)C(C(O)C7CNC(=N)N7)NC6=O)cc5)C(O)C4O)OC(CO)C(O)C3O2)c1 (stereo not shown) [Example 150a] , its MIC Coagulase Negative Staphylococcus (GC 4548) was 8

Form field MIC Coagulase Negative Staphylococcus (GC 4548), entry CC(C)CC(=O)OC1C(O)C(CO)OC(OC2C(CO)OC(Oc3ccc(CC4NC(=O)C(C(C)c5cccc(F)c5)NC(=O)CNC(=O)C(CO)NC(=O)C(C(O)C5CNC(=N)N5C5OC(CO)C(O)C(O)C5O)NC(=O)C(C(O)C5CNC(=N)N5)NC4=O)cc3)C(O)C2O)C1O (stereo not shown) [Example 264b] : 4

Entry CC(c1ccccc1)C1NC(=O)CNC(=O)C(CO)NC(=O)C(C(O)C2CNC(=N)N2C2OC(CO)C(O)C(O)C2O)NC(=O)C(C(O)C2CNC(=N)N2)NC(=O)C(Cc2ccc(OC3OC(CO)C(OC4OC5COC(c6cc7c(cc6Cl)OCO7)OC5C(O)C4O)C(O)C3O)cc2)NC1=O (stereo not shown) [Example 158] ; MIC Coagulase Negative Staphylococcus (GC 4548) = 1

// CC(c1ccccc1)C1NC(=O)CNC(=O)C(CO)NC(=O)C(C(O)C2CNC(=N)N2C2OC(CO)C(O)C(O)C2O)NC(=O)C(C(O)C2CNC(=N)N2)NC(=O)C(Cc2ccc(OC3OC(CO)C(OC4OC(COCc5ccc(Oc6ccccc6)cc5)C(O)C(O)C4O)C(O)C3O)cc2)NC1=O (stereo not shown) [Example 236] : MIC Coagulase Negative Staphylococcus (GC 4548) value = 0.5

Consider CCOc1cc(C2OCC3OC(OC4C(CO)OC(Oc5ccc(CC6NC(=O)C(C(C)c7ccccc7)NC(=O)CNC(=O)C(CO)NC(=O)C(C(O)C7CNC(=N)N7C7OC(CO)C(O)C(O)C7O)NC(=O)C(C(O)C7CNC(=N)N7)NC6=O)cc5)C(O)C4O)C(O)C(O)C3O2)ccc1OC (stereo not shown) [Example 152] . Its measured MIC Coagulase Negative Staphylococcus (GC 4548) is 8

The molecule listed as CC(c1ccccc1)C1NC(=O)CNC(=O)C(CO)NC(=O)C(C(O)C2CNC(=N)N2C2OC(CO)C(O)C(O)C2O)NC(=O)C(C(O)C2CNC(=N)N2)NC(=O)C(Cc2ccc(OC3OC(CO)C(OC4OC5COC(c6ccc7c(c6)OCCO7)OC5C(O)C4O)C(O)C3O)cc2)NC1=O (stereo not shown) [Example 149] has a reported MIC Coagulase Negative Staphylococcus (GC 4548) of 1

Memo: CC(c1ccccc1)C1NC(=O)CNC(=O)C(CO)NC(=O)C(C(O)C2CNC(=N)N2C2OC(CO)C(O)C(O)C2O)NC(=O)C(C(O)C2CNC(=N)N2)NC(=O)C(Cc2ccc(OC3OC(CO)C(OC4OC(COCC=C(c5ccccc5)c5ccccc5)C(O)C(O)C4O)C(O)C3O)cc2)NC1=O (stereo not shown) [Example 241] , reported MIC Coagulase Negative Staphylococcus (GC 4548): 1

Entry COc1ccc2cc(COC3C(OC4C(CO)OC(Oc5ccc(CC6NC(=O)C(C(C)c7ccccc7)NC(=O)CNC(=O)C(CO)NC(=O)C(CC7CNC(=N)N7C7OC(CO)C(O)C(O)C7O)NC(=O)C(CC7CNC(=N)N7)NC6=O)cc5)C(O)C4O)OC(CO)C(O)C3O)ccc2c1 (stereo not shown) [Example 245c] — recorded MIC Coagulase Negative Staphylococcus (GC 4548) = 128

The molecule CC(c1ccccc1)[C@@H]1NC(=O)CNC(=O)[C@H](CO)NC(=O)[C@H](C(O)C2CNC(=N)N2)NC(=O)[C@H](C(O)C2CNC(=N)N2)NC(=O)[C@H](Cc2ccc(O)cc2)NC1=O (stereo partly shown) [Example 280b] showed MIC Coagulase Negative Staphylococcus (GC 4548) equal to 128

Consider CC(C)=CCCC1OCC2OC(OC3C(CO)OC(Oc4ccc(CC5NC(=O)C(C(C)c6ccccc6)NC(=O)CNC(=O)C(CO)NC(=O)C(C(O)C6CNC(=N)N6C6OC(CO)C(O)C(O)C6O)NC(=O)C(C(O)C6CNC(=N)N6)NC5=O)cc4)C(O)C3O)C(O)C(O)C2O1 (stereo not shown) [Example 123] . Its measured MIC Coagulase Negative Staphylococcus (GC 4548) is 4

molecule CC(c1ccccc1)C1NC(=O)CNC(=O)C(CO)NC(=O)C(C(O)C2CNC(=N)N2C2OC(CO)C(O)C(O)C2O)NC(=O)C(C(O)C2CNC(=N)N2)NC(=O)C(Cc2ccc(OC3OC(CO)C(OC4OC(CO)C(O)C5OC(CC67CC8CC(CC(C8)C6)C7)OC45)C(O)C3O)cc2)NC1=O (stereo not shown) [Example 128] , MIC Coagulase Negative Staphylococcus (GC 4548) observed: 2
